Test system: ATF4 luciferase reporter
Assay: ATF4-Luc assay in HEK293T cells carrying the ATF4 luciferase reporter (in vitro model of VWMD)
Type: cell-based, human
Conditions: Homo sapiens, HEK-293T, 1 μg/mL tunicamycin, 7 hours, luminescence (One Glo)
Protocol: In order to test exemplary compounds of the invention in a cellular context, a stable VWMD cell line was first constructed. […] HEK293T cells carrying the ATF4 luciferase reporter were plated on polylysine coated 384-well plates (Greiner Bio-one) at 30,000 cells per well. […] Luminescence was measured using One Glo (Promega) as specified by the manufacturer. […]
measuredMetric: EC50

O=C(COc1ccc(Cl)c(F)c1)NC12CCC(C(=O)NCCc3ccc(C(F)(F)F)cc3)(CC1)C(O)C2 (stereo not shown) [Compound 138]
< 250 nM
O=C(COc1ccc(Cl)c(F)c1)NC12CCC(C(=O)NCc3cnccn3)(CC1)C(O)C2 (stereo not shown) [Compound 144]
> 2000 nM
O=C(COc1ccc(Cl)c(F)c1)NC12CCC(C(=O)NCc3cc(C(F)(F)F)ccn3)(CC1)C(O)C2 (stereo not shown) [Compound 120]
< 250 nM
Cc1ccncc1CNC(=O)C12CC(NC(=O)COc3ccc(Cl)c(F)c3)(C1)C2 [Compound 165]
> 2000 nM
O=C(COc1ccc(Cl)c(F)c1)NC12CCC(C(=O)NCc3ccccn3)(CC1)C(O)C2 (stereo not shown) [Compound 139]
1000 to 2000 nM
O=C(COc1ccc(Cl)c(F)c1)NC12CCC(C(=O)NCc3ccc(OC(F)(F)F)cc3)(CC1)C(O)C2 (stereo not shown) [Compound 133]
< 250 nM

// O=C(COc1ccc(Cl)c(F)c1)NC12CC(C(=O)NCc3ccc(C(F)(F)F)nc3)(C1)C2 [Compound 149] : EC50 value = 250 to 500 nM

// O=C(COc1ccc(Cl)c(F)c1)NC12CC(C(=O)NCc3ccc(F)c(F)c3)(C1)C2 [Compound 185] : EC50 value = > 2000 nM

// O=C(COc1ccc(Cl)c(F)c1)NC12CCC(C(=O)NCc3ccc(Cl)cc3)(CC1)C(O)C2 (stereo not shown) [Compound 132] : EC50 value = < 250 nM

// O=C(COc1ccc(Cl)c(F)c1)NC12CC(C(=O)NCc3c(Cl)cccc3Cl)(C1)C2 [Compound 163] : EC50 value = > 2000 nM
